- test.target: alpha1 -adrenoceptors
- protocol.notes: [^3 H]-prazosin binding assay (affinity for alpha1-adrenoceptors)
- condition: rat brain membranes, 0.2 nM [^3 H]-prazosin, 60 minutes at 25°
What IC50 was measured for each of the following?
Your answer is read as nM, so omit the unit and give the number.

Query :: Fill in IC50 for COC(=O)C1=C(C)NC(C)=C([N+](=O)[O-])C1c1cccc(OCCCN2CCN(C(c3ccc(F)cc3)c3ccc(F)cc3)CC2)c1 (stereo not drawn) tested with alpha1 -adrenoceptors.
Result :: 4500

Query :: Fill in IC50 for COc1ccccc1N1CCN(CCCOc2ccccc2C2C(C(=O)OC(C)C)=C(C)NC(C)=C2[N+](=O)[O-])CC1 (stereo not drawn) tested with alpha1 -adrenoceptors.
Result :: 340

Query :: Fill in IC50 for COc1ccccc1N1CCN(CCCCOc2ccccc2C2C(C(=O)OC(C)(C)C)=C(C)NC(C)=C2[N+](=O)[O-])CC1 (stereo not drawn) tested with alpha1 -adrenoceptors.
Result :: 990

# credit: patent US4868181A
